Target: ATP-sensitive inward rectifier potassium channel 1 (Homo sapiens) (UniProt P48048)
Sequence (P48048 whole entry, looked up): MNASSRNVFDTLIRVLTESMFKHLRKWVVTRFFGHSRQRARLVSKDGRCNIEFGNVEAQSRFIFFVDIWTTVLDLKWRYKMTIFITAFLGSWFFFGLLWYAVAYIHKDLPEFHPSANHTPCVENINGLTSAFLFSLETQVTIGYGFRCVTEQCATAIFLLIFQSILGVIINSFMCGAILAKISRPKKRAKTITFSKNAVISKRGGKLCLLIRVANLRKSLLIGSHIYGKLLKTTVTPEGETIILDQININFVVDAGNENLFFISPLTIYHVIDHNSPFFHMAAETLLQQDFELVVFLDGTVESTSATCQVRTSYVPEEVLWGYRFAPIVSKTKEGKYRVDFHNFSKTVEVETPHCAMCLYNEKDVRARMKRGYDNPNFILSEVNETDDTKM
Test: retested modulators of human Kir1.1 channel – cell-based, thallium flux, duplicate, resupplied hits, confirmation (AID 1917)
Conditions: ROMK thallium flux, fluorescence ratio; at 10 µM; active compounds read low
Out of some 3,000 compounds screened, about 1,600 (53%) were called active. Not shown: some 10% with an inconclusive outcome. So high a share suggests a set chosen from earlier hits. These entries were drawn from the full list.
The threshold is 0.07. Values of normalized thallium flux (F/F0 slope) beneath it are tagged 1.0; values meeting or exceeding it are tagged 0.0.

- C=CCn1cnc2scc(-c3ccccc3)c2c1=O: 1.0
- CCCN(CCC)CC(O)COc1ccccc1C(=O)Nc1ccccc1 (stereo unspecified): 1.0
- CC(C(=O)NC1CCCC1)N(c1ccc(Oc2ccccc2)cc1)S(C)(=O)=O (stereo unspecified): 1.0
- O=C1C(=O)N(c2ccccc2)c2ccccc21: 0.0
- N=c1c2c(-c3ccccc3)c(-c3ccccc3)n(Cc3ccccc3)c2ncn1CCCO: 1.0
- NC(=O)c1ccccc1N(Cc1ccccc1)S(=O)(=O)c1ccccc1: 0.0
- CCOC(=O)Cc1csc(SCC(=O)NC(C)C23CC4CC(CC(C4)C2)C3)n1 (stereo unspecified): 1.0
- CC1=C(C(=O)OCc2ccccc2)C(c2ccco2)n2ncnc2N1 (stereo unspecified): 0.0

# input Please determine if COCCNC(=O)/C(C#N)=C/c1cccc(OCc2ccccc2)c1 is below 0.07 in terms of normalized thallium flux (F/F0 slope).
# output 1.0

# input Please determine if CCOC(=O)Cc1csc(NC(=O)CSc2ccc(Br)cc2)n1 is below 0.07 in terms of normalized thallium flux (F/F0 slope).
# output 1.0

====

For each record, write down the corresponding normalized thallium flux (F/F0 slope).
Target: ATP-sensitive inward rectifier potassium channel 1 (Homo sapiens)
Assay: retested modulators of human Kir1.1 channel – cell-based, thallium flux, duplicate, resupplied hits, confirmation (AID 1917)
Conditions: ROMK thallium flux, fluorescence ratio; at 10 µM; active compounds read low
About 1,600 (53%) of roughly 3,000 compounds were called active. Inconclusive results (about 10%) are left out. The set was probably picked from earlier hits. The list is a sample of the results.
Give bare numbers.

* Cc1cc(C(C)(C)C)oc1C(=O)N(CC(=O)NC1CCCC1)Cc1ccc(Cl)cc1 | 0.0748
* CS(=O)(=O)c1ccc(Cl)c(NC(=O)Nc2ccccc2)c1 | 0.0706
* CNC(=O)/C(C#N)=C/c1c(F)cccc1Cl | 0.0423
* CC(C)(C)CC(C)(C)NCC(O)COCCOc1ccc(Br)cc1 (centres undefined) | 0.0489

// batch mode: one normalized thallium flux (F/F0 slope) value per listed entry
1. CCCCCCCCCCOC(=O)C[N+](C)(C)CC1CCCCC1O (centres undefined)
2. Cc1nnnn1/C(=C\c1ccccc1)C(=O)OCC(=O)N1CC2(C)CC1CC(C)(C)C2 (centres undefined)
3. CCOc1ccc(-n2cnnn2)cc1S(=O)(=O)N1CCC(C)CC1C (centres undefined)
4. O=C(Cc1ccccc1Cl)N1CCN(c2ccccn2)CC1
5. O=C(CCN1CCc2ccccc2C(O)(c2ccccc2)C1)c1ccc2c(c1)OCCO2 (centres undefined)
6. O=C(CN1C(=O)NC(Cc2ccccc2)(Cc2ccccc2)C1=O)NCC1CCCCC1
7. O=C(CCl)N(Cc1cccc([N+](=O)[O-])c1)c1cccc(Cl)c1
8. COc1ccc2[nH]c(=O)c(CNc3ccc(C)c(C)c3)cc2c1

# output
1. 0.0597
2. 0.0442
3. 0.0657
4. 0.0716
5. 0.0602
6. 0.056
7. 0.0469
8. 0.0713

// batch mode: one normalized thallium flux (F/F0 slope) value per listed entry
1. CCOC(=O)C1=C(C)N=c2s/c(=C\C(=O)OC)c(=O)n2C1c1ccc(OC)cc1 (centres undefined)
2. O=C(CN1CCCCCC1)NCCN1C(=O)S/C(=C\c2ccccc2Cl)C1=O
3. O=C(CN1C(=O)NC2(CCCCC2)C1=O)NCCC1=CCCCC1
4. CN(C)c1ccc(C=C2C(=O)OC3(CCCC3)OC2=O)cc1
5. CCN1C(=O)/C(=C2/Sc3ccccc3N2CCCS(=O)(=O)O)SC1=S
6. O=C(/C=C/Sc1ncn[nH]1)c1ccc(Cl)cc1
7. Cc1cccc(Oc2c([N+](=O)[O-])c(=O)n(C)c3ccccc23)c1

# output
1: 0.0406; 2: 0.0525; 3: 0.0839; 4: 0.0453; 5: 0.0827; 6: 0.0389; 7: 0.063
